test system: PXR homodimer (NR concentration 270 nM); assay: PBM binding z-score (relative to random genomic background probes); higher = stronger binding; sequences stand for … in GC…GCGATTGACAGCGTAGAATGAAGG
Task for the reader: assign each of the following sequences its reported PBM binding z-score.
Answers are plain numbers.

1. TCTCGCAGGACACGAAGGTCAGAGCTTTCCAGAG ... -0.0691

Give me PBM binding z-score for each of these sequences, listed below.
1. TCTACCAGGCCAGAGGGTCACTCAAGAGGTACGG
2. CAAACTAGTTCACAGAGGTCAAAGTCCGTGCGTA
3. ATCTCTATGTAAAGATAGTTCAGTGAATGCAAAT
4. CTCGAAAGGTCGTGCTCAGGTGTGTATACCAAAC

Result:
[-0.126, 14.3, 0.457, 0.146]
